The reported numbers originate from PubChem BioAssay (NCI).

System: LOX IMVI melanoma
protocol-summary: NCI tumour cell line growth inhibition, 48 h
property: TGI (µM)

| compound | bound-operator | number |
| --- | --- | --- |
| CNCCCn1cc(C2=C(c3cn(C)c4ccccc34)C(=O)NC2=O)c2ccccc21 | = | 8.28 |
| O=C1N=c2ccccc2=C1c1c(O)[nH]c2ccccc12 | = | 49.9 |
| Cc1ccc(S(=O)(=O)Oc2cc(-c3ccccc3)nc3ccccc23)cc1 | > | 78.5 |
| CCN(CC)CCOc1ccc(/C=C(\C#N)c2ccc(OCCN(CC)CC)cc2)cc1 | = | 25.5 |
| O=S(=O)([O-])c1ccc2c(c1)-c1nc-2nc2[n-]c(nc3nc(nc4[n-]c(n1)c1ccc(S(=O)(=O)[O-])cc41)-c1cc(S(=O)(=O)[O-])ccc1-3)c1ccc(S(=O)(=O)[O-])cc21.[Cu+2].[Na+] | > | 100 |
| CCCCOC(=O)C1C(c2ccc(Cl)cc2)NC(c2ccc(Cl)cc2)C(C(=O)OCCCC)S1(=O)=O (stereo not drawn) | > | 100 |
| CC(C)(C)C(=O)OCOP(=O)(OCOC(=O)C(C)(C)C)C1CCCN(O)C1=O (stereo not drawn) | = | 12.3 |
| COc1cc(/C=C2\CCC(C)C3C2=NN(C(C)=O)C3c2cc(OC)c(OC)c(OC)c2)cc(OC)c1OC (stereo not drawn) | > | 100 |

---

System: UACC-62 melanoma
protocol-summary: NCI tumour cell line growth inhibition, 48 h
property: TGI (µM)

| compound | bound-operator | number |
| --- | --- | --- |
| Cc1ccc(NC(=O)c2c(C)nc(=O)n3c2N(/N=C/c2ccc(Cl)cc2)CC3)cc1 | = | 28.2 |
| CC(C)=C[C@@H]1C[C@H](C)[C@H]2CC[C@H](C)C3=C2[C@](O)(OC3=O)[C@]1(C)O | > | 100 |
| COc1ccc(/C=C(/C(=O)c2ccc(Cl)cc2)N2C=CC=CC2=C(C#N)C#N)cc1OC | = | 28.2 |
| C#Cc1cccc(Nc2ncnc3cc(OC)c(OCCCCCCC(=O)NO)cc23)c1 | = | 0.344 |
| Oc1[nH]c2ccccc2c1N=Nc1ccccc1Cl | > | 100 |
| CC1=CC(/C=C(\C)CCCc2ccoc2)C2(OC(=O)C(C)=C2O)[C@H]2C1CC[C@@H]2C (stereo partly drawn) | = | 37.5 |
| CCC1(CC)SCc2nc3ccccc3n21 | > | 100 |
| CN1C(=O)N/C(=C\c2ccc(S(=O)(=O)NN)cc2)C1=O | > | 100 |
| COc1cc(Nc2cn[nH]c2-c2ccc(Cl)cc2)cc(OC)c1OC | = | 18.9 |
| CN(c1ccc(Cl)cc1)S(=O)(=O)c1cccc([N+](=O)[O-])c1 | > | 100 |
| Cc1c2cccnc2c(C)c2c1c1cc(CO)ccc1n2C | = | 4.56 |
| Cc1ccc(S(=O)(=O)Oc2cc(-c3ccccc3)nc3ccccc23)cc1 | = | 20.7 |
| Clc1coc2nc3ccccc3c(Nc3ccc4c(c3)OCO4)c12 | = | 5.32 |
| CC(=O)OC1Oc2ccccc2-c2oc(=O)c(-c3cc(=O)oc4cc(O)ccc34)cc21 (stereo not drawn) | = | 39 |
| CC(C)(C)C(=O)OCC1CCC[N+]2(C)CCCCC12 (stereo not drawn) | > | 100 |
| Cn1c(=O)c2c(nc(Nc3cc(=O)[nH]c(=O)[nH]3)n2Cc2ccccc2)n(C)c1=O | > | 100 |
| C=C(C=O)[C@@H]1C2OC(=O)C(=C)[C@@H]2CC(O)[C@@]1(C)CC (stereo partly drawn) | = | 13.9 |
| CCC(=O)NC(Nc1cccc(F)c1C)(C(F)(F)F)C(F)(F)F | > | 100 |
